System: NCI-H522 lung
Assay: NCI-60 one-dose screen, 48 h
Settings: 10 µM unless noted
Compounds without any hit were thinned out: in the full panel of roughly 83,000, 20% have a hit. The source made the active and inactive calls. Rule for the calls: active = growth percent below 10; inactive = the rest.
Possible outcomes: active, inactive

smiles_notation=COc1cc(C=C2C(=O)NC(=O)NC2=O)ccc1O category_label=inactive
smiles_notation=S=P(SP(=S)(c1ccccc1)c1ccccc1)(c1ccccc1)c1ccccc1 category_label=inactive
smiles_notation=CC1(C)S[C@H]2CC[C@H]3OC(=O)[C@@H]1N23 category_label=inactive
smiles_notation=N#CC(NC(=O)CCl)=C(Cl)Cl category_label=active
smiles_notation=CCCCOCCOP(=O)(OCCOCCCC)OCCOCCCC category_label=inactive
smiles_notation=CN1[C@@H](CC(=O)c2ccccc2)CCC[C@H]1CC(=O)c1ccccc1 category_label=inactive
